FYI, the data here is from paper PMC8037182.

Test system: Hela cell line
method: Cytotoxicity MTS assay, Hela cell line;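 further: blank control wells received 0.025% DMSO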
Format: cell-based
conditionInfo: Hela cell line, MTS, 100μM, second assay
propertyLabel: OD490 value, Mean

compound="CCOC(=O)c1[nH]c(C2NC(=O)NC(C)=C2C(=O)Nc2ccccc2OC)c(C(=O)OC)c1C (centres unmarked)" propertylabel="OD490 value, Mean" valueobserved=1.7632

Using known records, supply OD490 value, Mean for CCOC(=O)c1c(C2NC(=O)NC(C)=C2C(=O)Nc2ccccc2OC)[nH]c(C(=O)OC)c1C (centres unmarked) [D1]
1.9690

Using known records, supply OD490 value, Mean for CCOC(=O)c1[nH]c(C2NC(=O)NC(C)=C2C(=O)Nc2ccc(Cl)cc2)c(C(=O)OCC)c1C (centres unmarked)
1.8447

Using known records, supply OD490 value, Mean for CCOC(=O)c1c(C2NC(=O)NC(C)=C2C(=O)Nc2ccccc2C)[nH]c(C(=O)OC)c1C (centres unmarked) [D2]
2.0267

Using known records, supply OD490 value, Mean for CCOC(=O)c1c(C2NC(=O)NC(C)=C2C(=O)Nc2ccccc2)[nH]c(C(=O)OC)c1C (centres unmarked)
1.6082

Using known records, supply OD490 value, Mean for CCOc1ccccc1C1NC(=S)NC(C)=C1C(=O)Nc1ccc(Cl)cc1 (centres unmarked)
1.0983

Using known records, supply OD490 value, Mean for CCOC(=O)c1[nH]c(C2NC(=S)NC(C)=C2C(=O)OC)c(C(=O)OCC)c1C (centres unmarked)
2.4086

Using known records, supply OD490 value, Mean for CCOC(=O)c1[nH]c(C2NC(=O)NC(C)=C2C(=O)Nc2ccccc2C)c(C(=O)OC)c1C (centres unmarked)
2.0041

---

Tested on: Hela cell line
method: Cytotoxicity MTS assay, Hela cell line;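 further: blank control wells received 0.025% DMSO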
Format: cell-based
conditionInfo: Hela cell line, MTS, 10μM, first assay
Each item that follows carries a reported OD490 value, Well 1.
Quick one: just the number, no unit, thanks!

Below, 3 compounds whose answers are already recorded.
compound="CCOC(=O)c1c(C2NC(=O)NC(C)=C2C(=O)Nc2ccccc2OC)[nH]c(C(=O)OC)c1C (stereo not shown) [D1]" valueobserved=2.3442
compound="CCOC(=O)c1c(C2NC(=O)NC(C)=C2C(=O)Nc2ccccc2C)[nH]c(C(=O)OC)c1C (stereo not shown) [D2]" valueobserved=2.4718
compound="CCOC(=O)c1c(C2NC(=O)NC(C)=C2C(=O)Nc2ccccc2)[nH]c(C(=O)OC)c1C (stereo not shown)" valueobserved=2.2701

As a next step, examine the compound that follows.
Using known records, supply OD490 value, Well 1 for CCOc1ccccc1C1NC(=S)NC(C)=C1C(=O)Nc1ccc(Cl)cc1 (stereo not shown)
2.1660

---

Each item that follows carries a reported OD490 values, Mean.
Test system: L929 cell line
method: Cytotoxicity MTS assay, L929 cell line
Format: cell-based
conditionInfo: L929 cell line, 1μM, third assay
Quick one: just the number, no unit, thanks!

Below, 4 compounds whose answers are already recorded.
compound="COC(=O)c1[nH]c(C2NC(=S)NC(C)=C2C(=O)c2ccccc2)c(C(=O)OC)c1C (stereo not drawn)" testtarget="L929 cell line" propertylabel="OD490 values, Mean" valueobserved=1.6023
compound="CCOC(=O)c1[nH]c(C2NC(=S)NC(C)=C2C(=O)OC)c(C(=O)OCC)c1C (stereo not drawn)" testtarget="L929 cell line" propertylabel="OD490 values, Mean" valueobserved=1.5596
compound="CCOC(=O)c1[nH]c(C2NC(=O)NC(C)=C2C(=O)Nc2ccccc2C)c(C(=O)OC)c1C (stereo not drawn)" testtarget="L929 cell line" propertylabel="OD490 values, Mean" valueobserved=1.5459
compound="CCOC(=O)c1c(C2NC(=O)NC(C)=C2C(=O)Nc2ccccc2OC)[nH]c(C(=O)OC)c1C (stereo not drawn) [D1]" testtarget="L929 cell line" propertylabel="OD490 values, Mean" valueobserved=1.7249

Using known records, supply OD490 values, Mean for CCOc1ccccc1C1NC(=S)NC(C)=C1C(=O)Nc1ccc(Cl)cc1 (stereo not drawn)
1.5501

Using known records, supply OD490 values, Mean for CCOC(=O)c1[nH]c(C2NC(=O)NC(C)=C2C(=O)Nc2ccc(Cl)cc2)c(C(=O)OCC)c1C (stereo not drawn)
1.6677
